# system name: Cell division cycle 7-related protein kinase (Homo sapiens, UniProt O00311)
# Sequence (O00311 whole entry, looked up): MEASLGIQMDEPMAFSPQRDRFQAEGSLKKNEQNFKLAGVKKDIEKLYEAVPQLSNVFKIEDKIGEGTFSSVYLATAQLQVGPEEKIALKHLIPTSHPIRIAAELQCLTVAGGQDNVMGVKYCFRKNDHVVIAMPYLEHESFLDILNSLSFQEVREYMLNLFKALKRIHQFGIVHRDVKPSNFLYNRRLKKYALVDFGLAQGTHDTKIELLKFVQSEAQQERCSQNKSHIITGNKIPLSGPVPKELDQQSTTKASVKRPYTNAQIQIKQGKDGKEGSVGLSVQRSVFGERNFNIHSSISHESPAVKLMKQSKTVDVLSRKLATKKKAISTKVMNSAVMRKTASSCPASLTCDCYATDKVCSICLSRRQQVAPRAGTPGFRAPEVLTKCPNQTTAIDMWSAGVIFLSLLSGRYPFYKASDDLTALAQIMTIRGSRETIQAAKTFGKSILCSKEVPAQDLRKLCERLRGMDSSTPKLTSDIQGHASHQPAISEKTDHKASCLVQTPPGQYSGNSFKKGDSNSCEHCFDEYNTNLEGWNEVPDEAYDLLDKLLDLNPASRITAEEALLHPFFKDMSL
# assay summary: Inhibition of CDC7 in human COLO205 cells assessed as reduction in MCM2 phosphorylation at S53 residue at 0.1 uM incubated for 48 hrs by Western blot analysis relative to control
# Assay type: cell-based
# measurement parameters: COLO 205
The reader will find reported inhibition values listed item by item below.
assay metric: inhibition

> print(dat)
                               input.smiles  assay.metric  reported.result
1  CCOC(=O)C1=C(NN2CCN(C)CC2)O/C(=C\c2c[nH]c3ncccc23)C1=O    inhibition              63%
2  CCOC(=O)C1=C(NN2CCCCCC2)O/C(=C\c2c[nH]c3ncccc23)C1=O    inhibition             100%
3  CCOC(=O)C1=C(NN2CCN(CCO)CC2)O/C(=C\c2c[nH]c3ncccc23)C1=O    inhibition              18%
4  CCOC(=O)C1=C(NN(CC)CC)O/C(=C\c2c[nH]c3ncccc23)C1=O    inhibition              67%
5  CCOC(=O)C1=C(NN2CCN(CC(F)(F)F)CC2)O/C(=C\c2c[nH]c3ncccc23)C1=O    inhibition             100%

###

# system name: Dual specificity protein kinase CLK2 (Homo sapiens)
# Sequence (P49760 whole entry): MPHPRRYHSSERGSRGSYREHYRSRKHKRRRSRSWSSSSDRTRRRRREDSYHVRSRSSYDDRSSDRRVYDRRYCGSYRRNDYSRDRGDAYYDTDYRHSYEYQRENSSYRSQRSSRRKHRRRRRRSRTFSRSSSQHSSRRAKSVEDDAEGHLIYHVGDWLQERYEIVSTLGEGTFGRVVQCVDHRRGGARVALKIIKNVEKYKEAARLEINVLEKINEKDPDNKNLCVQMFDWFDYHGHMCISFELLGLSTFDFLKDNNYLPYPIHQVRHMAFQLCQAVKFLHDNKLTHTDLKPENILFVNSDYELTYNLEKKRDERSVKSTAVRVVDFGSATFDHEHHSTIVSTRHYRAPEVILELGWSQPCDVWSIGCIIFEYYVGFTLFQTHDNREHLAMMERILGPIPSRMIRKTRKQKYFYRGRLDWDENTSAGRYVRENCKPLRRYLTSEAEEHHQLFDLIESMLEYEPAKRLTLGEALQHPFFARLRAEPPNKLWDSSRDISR
# assay summary: Inhibition of CLK2 (unknown origin) in presence of 1 mM ATP without preincubation
pIC50: −log10 of the molar value.
assay metric: pIC50

> print(dat)
                                   molecule                               system.name  reported.result
1  CCOC(=O)C1=C(NN2CCN(CC(F)(F)F)CC2)O/C(=C\c2c[nH]c3ncccc23)C1=O [MONZOSERTIB]  Dual specificity protein kinase CLK2 (Homo sapiens)             6.57

###

# assay summary: Inhibition of human CDC7/ASK using FITC-labelled MCM2 substrate in presence of 1 mM of ATP
assay metric: IC50 (nM)

> print(dat)
                               input.smiles  unit.text  reported.result
1  CCOC(=O)C1=C(N2CCC(O)CC2)O/C(=C\c2c[nH]c3ncccc23)C1=O         nM             1260
2  CCOC(=O)C1=C(N2CCCCC2)O/C(=C\c2c[nH]c3ncccc23)C1=O         nM              856
3  CCOC(=O)C1=C(NC2CCCCC2)O/C(=C\c2c[nH]c3ncccc23)C1=O         nM              667
4  CCOC(=O)C1=C(NC2CCCC2)O/C(=C\c2c[nH]c3ncccc23)C1=O         nM             1470
5  CCOC(=O)C1=C(N2CCC(CO)CC2)O/C(=C\c2c[nH]c3ncccc23)C1=O         nM             1340

Source listed as ChEMBL document CHEMBL4828769.
